# study_system: PAR2 (HT-29 cells) (Homo sapiens)
# Construct: host or cells: HT-29
# Sequence (P55085 26-397): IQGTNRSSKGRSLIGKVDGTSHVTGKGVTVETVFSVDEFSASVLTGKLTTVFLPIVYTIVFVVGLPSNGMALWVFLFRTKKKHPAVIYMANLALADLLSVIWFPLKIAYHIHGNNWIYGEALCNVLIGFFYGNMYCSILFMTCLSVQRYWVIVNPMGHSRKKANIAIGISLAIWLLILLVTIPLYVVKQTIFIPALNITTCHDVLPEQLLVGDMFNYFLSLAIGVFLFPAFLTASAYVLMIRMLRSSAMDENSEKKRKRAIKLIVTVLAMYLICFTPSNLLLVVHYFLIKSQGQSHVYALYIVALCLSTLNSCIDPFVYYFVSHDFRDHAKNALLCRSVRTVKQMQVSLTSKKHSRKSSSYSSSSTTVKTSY
# experimental_details: Ca FLIPR TETRA assay, ANTAGONIST mode, activator 8 μM SLIGKV
# Assay type: cell-based
# experimental_context: HT-29 cells, activator 8 μM SLIGKV; maximal antagonist concentration per Method (A: 0.1, 1 or 2 μM; B: 50 μM)
pIC50: −log10 of the molar value.
Assign Condition met to entries whose pIC50 meets or exceeds 8; assign Condition not met to the rest.

Consider the following illustrative entries.
{"compound": "CCc1cc(-c2ccc(F)cc2)nc2cc(C(=O)N3CCN(C(=O)C(C)(C)O)CC3(C)C)oc12 [Example I-4]", "study_system": "PAR2 (HT-29 cells) (Homo sapiens)", "answer_label": "Condition not met"}
{"compound": "CC(C)(C)c1cc(-c2ccc(Cl)cc2)nc2cc(C(=O)N3CCN(C(=O)c4ccn[nH]4)CC3(C)C)oc12 [Example I-168]", "study_system": "PAR2 (HT-29 cells) (Homo sapiens)", "answer_label": "Condition met"}
{"compound": "CC1(C)CN(C(=O)C2CC(O)(C(F)(F)F)C2)CCN1C(=O)c1cc2nc(-c3ccc(F)cc3)cc(C3(C#N)CC(F)(F)C3)c2o1 (stereo not drawn) [Example I-205]", "study_system": "PAR2 (HT-29 cells) (Homo sapiens)", "answer_label": "Condition met"}
{"compound": "Cc1ccnc(N2CCN(C(=O)c3cc4nc(-c5ccc(Cl)c(F)c5)cc(C(C)(C)C)c4o3)C(C)(C)C2=O)n1 [Example I-276]", "study_system": "PAR2 (HT-29 cells) (Homo sapiens)", "answer_label": "Condition met"}
{"compound": "CC1(c2cc(-c3ccc(F)cc3)nc3cc(C(=O)N4CCN(C(=O)[C@H]5CCC(=O)O5)CC4(C)C)oc23)CC1 [Example I-33]", "study_system": "PAR2 (HT-29 cells) (Homo sapiens)", "answer_label": "Condition not met"}

QUERY: Hi team, for CC1(c2cc(-c3ccc(F)cc3)nc3cc(C(=O)N4CCN(C(=O)C5CCCCC5)CC4(C)C)oc23)CC1 [Example I-42] , is the recorded pIC50 at or above 8?
RESULT: Condition met

QUERY: Hi team, for Cc1cc(-c2ccc(F)cc2)nc2cc(C(=O)N3CCN(C(=O)C(C)(C)O)CC3(C)C)oc12 [Example I-3] , is the recorded pIC50 at or above 8?
RESULT: Condition not met

QUERY: Hi team, for CCCC(CC)c1cc(-c2ccc(F)cc2)nc2cc(C(=O)N3CCNC(=O)C3(C)C)oc12 (stereo not drawn) [Example I-249] , is the recorded pIC50 at or above 8?
RESULT: Condition met

QUERY: Hi team, for CN1CCN(C(=O)c2cc3nc(-c4ccc(Cl)c(F)c4)cc(C(C)(C)C)c3o2)C(C)(C)C1=O [Example I-241] , is the recorded pIC50 at or above 8?
RESULT: Condition met

Hello, the source for this data is patent US20180057505A1, in case you need it.
